assay: chemical genetic growth profiling, strain panel (AID 1159580);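 also: tested at 20 µM; growth read once vehicle control cultures reached saturation at 30 °C; 1 = growth at the plate median or of vehicle wells; lower values mean less growth of the strain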; conditions: S. cerevisiae deletion strains, growth OD, locus YLR058C, strain SHM2, hits give low values
Hit rate of the full screen: of about 5,500 compounds, about 2,000 (36%) were called active. Another 18% or so got no clear call; they are omitted. This is one part of the list.
Measured normalized growth, listed per entry.
Hey, just send me the number, nothing else.

molecule="CC1CC[C@@]2(OC1)O[C@H]1CC3C4CC[C@@H]5CC(=O)CC[C@]5(C)C4CC[C@]3(C)[C@H]1[C@@H]2C (stereo not given in full)" observed_measurement=0.999
molecule=O=C(O)C1=C[C@@H](O)[C@@H](O)[C@H](O)C1 observed_measurement=1.01
molecule="C[C@@H]1CC[C@@]2(OC1)OC1CC3C4CC=C5C[C@@H](O)CC[C@]5(C)C4CC[C@]3(C)C1[C@@H]2C (stereo not given in full)" observed_measurement=1
molecule=C=C[C@H]1CN2CC[C@H]1C[C@@H]2[C@@H](OC(=O)OCC)c1ccnc2ccc(OC)cc12 observed_measurement=1.01

API: the following record is the query input.
Dear colleague, I am looking for the recorded normalized growth of the following molecule: CN1C(C)(C)CCCC1(C)C
1.02

---

assay: chemical genetic growth profiling, strain panel (AID 1159580);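 also: tested at 20 µM; growth read once vehicle control cultures reached saturation at 30 °C; 1 = growth at the plate median or of vehicle wells; lower values mean less growth of the strain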; details: S. cerevisiae deletion strains, growth OD, locus YBR279W, strain paf1
In all, about 5,500 compounds went through this assay and about 2,000 (36%) were called active. Inconclusive results (about 18%) are left out. No stated cut-off is given here; in the data, active means normalized growth mostly below about 0.91 (no sharp cut-off); inconclusive means no clear call, values can overlap the other calls; inactive means mostly above about 0.92. The list shows a part of the results.
Classes to choose from: yes for active, no for inactive

molecule="CCCCCCC(C)OC(=O)COc1ccc(Cl)cc1Cl (configuration not stated)" category_label=no

Could you kindly confirm the outcome this assay logged for COC(=O)c1c(C)cc(OC)cc1O ?
no

Could you kindly confirm the outcome this assay logged for C=CC1C2=CCOC(=O)C2=COC1OC1OC(CO)C(O)C(O)C1O (configuration not stated) ?
no

Could you kindly confirm the outcome this assay logged for COc1cc(OC)c2ccc(=O)oc2c1 ?
no

Could you kindly confirm the outcome this assay logged for CC[n+]1c(-c2ccccc2)c2cc(N)ccc2c2ccc(N)cc21 ?
no

Could you kindly confirm the outcome this assay logged for C[C@@H]1O[C@@H](OC[C@H]2OC(Oc3c(-c4ccc(O)c(O)c4)oc4cc(O)cc(O)c4c3=O)[C@H](O)[C@@H](O)[C@@H]2O)[C@H](O)[C@H](O)[C@H]1O (some centres not stated) ?
no

Could you kindly confirm the outcome this assay logged for CC(C)(C)NCC(O)c1cc(Cl)c(N)c(Cl)c1 (configuration not stated) ?
no

Could you kindly confirm the outcome this assay logged for O=C1[O][Bi][O]c2ccccc21 ?
no

Could you kindly confirm the outcome this assay logged for C[C@]12CCC3c4ccc(O)cc4CCC3C1CC[C@@H]2O (some centres not stated) ?
no

Could you kindly confirm the outcome this assay logged for O=c1c(O)c(-c2ccc(O)c(O)c2)oc2cc(O)cc(O)c12 ?
yes

Could you kindly confirm the outcome this assay logged for Oc1cc2c(cc1O)C1c3ccc(O)c(O)c3OCC1(O)C2 (configuration not stated) ?
no

Could you kindly confirm the outcome this assay logged for CCOC(=O)c1c(C)cc(OC)cc1O ?
no

Could you kindly confirm the outcome this assay logged for C[C@@H]([C@H](O)c1ccccc1)N(C)C ?
no

---

assay: chemical genetic growth profiling, strain panel (AID 1159580);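 also: tested at 20 µM; growth read once vehicle control cultures reached saturation at 30 °C; 1 = growth at the plate median or of vehicle wells; lower values mean less growth of the strain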; conditions: S. cerevisiae deletion strains, growth OD, locus YDL192W, strain arf1
The whole screen tested about 5,500 compounds, of which about 2,000 (36%) were called active. Roughly 18% stayed inconclusive and do not appear here. Rule as the data show it: active = normalized growth mostly below about 0.91 (no sharp cut-off); inconclusive = no clear call, values can overlap the other calls; inactive = mostly above about 0.92. This is one part of the list.
Classes to choose from: active, inactive

Reference set, count: 2
molecule="NC(=O)NCCCC(N)C(=O)O (configuration not stated)" category_label=inactive
molecule="CC1CC[C@]2(NC1)O[C@H]1CC3C4CC[C@H]5C[C@@H](O)CC[C@]5(C)C4CC[C@]3(C)[C@H]1[C@@H]2C (some centres not stated)" category_label=active

Could you kindly confirm the outcome this assay logged for O=c1cc(-c2ccc(O)cc2)oc2cc(O[C@@H]3O[C@H](CO)[C@@H](O)[C@H](O)[C@H]3O)cc(O)c12 ?
inactive

Could you kindly confirm the outcome this assay logged for CCC(N)C(O)c1ccc(O)c(O)c1 (configuration not stated) ?
inactive

Could you kindly confirm the outcome this assay logged for COC(=O)C1OC(=O)C2OC23C1(C)CCC1C2(C)C(OC(C)=O)CC(OC(C)=O)C(C)(C)C2CC(=O)C13C (configuration not stated) ?
inactive

Could you kindly confirm the outcome this assay logged for CC12CCC3c4ccc(OC(=O)c5ccccc5)cc4CCC3C1CCC2O (configuration not stated) ?
inactive

Could you kindly confirm the outcome this assay logged for C[C@@H]1CC[C@@]2(OC1)O[C@H]1CC3C4CC[C@H]5C[C@@H](O)CC[C@]5(C)C4CC[C@]3(C)[C@H]1[C@@H]2C (some centres not stated) ?
inactive

Could you kindly confirm the outcome this assay logged for C[C@]12CCC3c4ccc(O)cc4CCC3C1CC[C@@H]2O (some centres not stated) ?
inactive

Could you kindly confirm the outcome this assay logged for COc1ccc(-c2oc3cc(O[C@H]4O[C@H](CO)[C@@H](O)[C@H](O)[C@H]4O)c(OC)c(O)c3c(=O)c2OC)cc1O ?
inactive

Could you kindly confirm the outcome this assay logged for NC(N)=NC(=O)c1nc(Cl)c(N2CCCCCC2)nc1N ?
inactive

Could you kindly confirm the outcome this assay logged for CC(C)(O)[C@@H]1Cc2cc3ccc(=O)oc3cc2O1 ?
inactive

Could you kindly confirm the outcome this assay logged for CC/C(=C(/CC)c1ccc(O)cc1)c1ccc(O)cc1 ?
inactive

The values you see were collected from PubChem BioAssay AID1159580.
